tested on: P93_24; experiment: qHTS profiling for inhibitors of Plasmodium falciparum proliferation (AID 504749); also: nearly all actives have a fitted effect of over 60% in size; settings: P. falciparum in erythrocytes, SYBR Green DNA, 72 h; series mostly up to 28.7 µM
Records with an inconclusive call do not appear. Calls of active or inactive are those of the source. Calls follow the shape of the dose curve; as a rule, active = well fitted inhibition curve with a large enough effect; inconclusive = small, poorly fitted or top-dose-only effect; inactive = flat fitted curve, though single readings scatter.
A correct response names exactly one class from active, inactive

Worked examples follow.
compound	cat
OCC1O[C@@H](O[C@@H]2C(CO)OC(O)C(O)C2O)C(O)C(O)C1O (stereo partly specified)	inactive
CN(C)CC/C=C1\c2ccccc2COc2ccc(CC(=O)O)cc21	inactive
C[C@]12CC[C@@H]3c4ccc(O)cc4CC[C@H]3[C@@H]1C[C@H](O)C2O (stereo partly specified)	inactive
CN1[C@H]2CC(OC(=O)[C@H](CO)c3ccccc3)C[C@H]1[C@H]1O[C@H]12 (stereo partly specified)	inactive
CC1=C(c2ccc(NN=C(C#N)C#N)cc2)NNC(=O)C1	inactive
CC1(C)SC2C(NC(=O)C(C(=O)O)c3ccccc3)C(=O)N2C1C(=O)O (stereo unspecified)	inactive

Called result for CCCCCCCCCCCCCCCC(=O)OC[C@H](O)[C@H]1OC[C@@H](O)[C@@H]1O
inactive

For this compound, state the assay outcome: CCCC(=O)Nc1c(I)cc(I)c(C[C@H](CC)C(=O)O)c1I
inactive

Please let me know the test result on file for OC[C@@H](O)C(O[C@@H]1O[C@@H](CO)[C@H](O)[C@H](O)[C@H]1O)[C@H](O)[C@@H](O)CO (stereo partly specified) .
inactive

Please let me know the test result on file for CC1=C(/C=C/C(C)=C\C=C\C(C)=C\C=C\C=C(C)\C=C\C=C(C)\C=C\C2=C(C)C[C@@H](O)CC2(C)C)C(C)(C)C[C@H](O)C1 .
active

In this assay, the call recorded for CC(C)C[C@@H](NC(=O)[C@@H](Cc1ccccc1)NC(=O)c1cnccn1)B(O)O was what?
active

Can you look up the reported call for NC(CSSCC(N)C(=O)O)C(=O)O (stereo unspecified) for me?
inactive

Please indicate how the test categorized CC[C@@]1(O)C[C@H](O[C@H]2C[C@@H](N(C)C)[C@@H](O[C@H]3C[C@@H](O)[C@@H](O[C@H]4CCC(=O)[C@@H](C)O4)[C@@H](C)O3)[C@@H](C)O2)c2c(cc3c(c2O)C(=O)c2c(O)cccc2C3=O)[C@H]1C(=O)OC .
active

What call does the record list for O=C(O)C[CH2][Ge](=[O])[O][Ge](=[O])[CH2]CC(=O)O ?
inactive

Hi, do you know how O=C(O)Cc1sc(-c2ccc(Cl)cc2)nc1-c1ccccc1 came out in this test?
inactive

What was the test verdict on NCCCCC(N)C(=O)O (stereo unspecified) ?
inactive

Could you check what this test reported for C/C=C\C[C@H](C)[C@H](O)[C@H]1C(=O)N[C@@H](CC)C(=O)N(C)CC(=O)N(C)[C@@H](CC(C)C)C(=O)N[C@@H](C(C)C)C(=O)N(C)[C@@H](CC(C)C)C(=O)N[C@@H](C)C(=O)N[C@@H](C)C(=O)N(C)[C@@H](CC(C)C)C(=O)N(C)[C@@H](CC(C)C)C(=O)N(C)[C@@H](C(C)C)C(=O)N1C ?
active

Could you kindly confirm the outcome this assay logged for OCC1OC(O)C(O)C(O)C1O (stereo unspecified) ?
inactive

Recorded call for C=C1C(=O)O[C@@H]2[C@@H]1CC/C(C)=C\CC[C@@]1(C)O[C@H]21 ?
inactive

What call does the record list for CO/N=C(/C(=O)N[C@@H]1C(=O)N2C(C(=O)O)=C(CSc3cnns3)CS[C@H]12)c1csc(N)n1 ?
inactive

Assay result, entry CCC(=O)O[C@]1(C(=O)CCl)[C@@H](C)CC2C3C[C@H](F)C4=CC(=O)C=CC4(C)[C@@]3(F)C(O)CC21C (stereo partly specified) — outcome?
active

Source: PubChem BioAssay (NCATS)
